The measured values listed here are drawn from PubChem BioAssay (Tox21).

- Experiment notes: qHTS assay for identifying genotoxic compounds that show differential cytotoxicity against isogenic chicken DT40 cell lines with known DNA damage response pathways - Rev3 mutant cell line (AID 743014); also: nearly all actives have a fitted effect of over 55% in size
- Test parameters: chicken DT40 Rev3-/- viability, CellTiter-Glo, 40 h; series mostly up to 68.4 µM
- Description: National Center for Advancing Translational Sciences [NCATS] NIH Chemical Genomics Center [NCGC] U.S. Environmental Protection Agency [EPA] National Institutes of Environmental Health Sciences [NIEHS] National Toxicology Program [NTP] U.S. Food and Drug Administration [FDA] DNA repair pathways play a critical role in cellular homeostasis by repairing DNA damage induced by endogenous processes and xenobiotics. […]
Results filed as inconclusive are left out. Calls of active or inactive are those of the source. Calls follow the shape of the dose curve; as a rule, active = well fitted cell-killing curve with a large enough effect in the repeat runs; inconclusive = weak or mixed curves, or effect the other way; inactive = no such curve, though single readings can be large or run the other way.
Outcomes: Yes (active), No (inactive)

> print(dat)
                                    molecule  classification
 1           Cc1cccc(C)c1NC(=O)CC12CCCN1CCC2              No
 2           CCOC(=O)COC(=O)c1ccccc1C(=O)OCC              No
 3  Nc1ccn([C@@H]2O[C@H](CO)[C@@H](O)C2(F)F)c(=O)n1             Yes
 4                     NC(=O)Cc1cccc2ccccc12              No
 5  COc1cc(C(=O)OC(COCCC(C)C)CN2CCOCC2)cc(OC)c1OC (configuration not stated)              No
 6  COC(=O)C1=C(C)NC(C)=C(C(=O)OC(C)C)C1c1cccc2nonc12 (configuration not stated)              No
 7  CCCC(C)C(=O)OCC (configuration not stated)              No
 8        CC1(C)[C@@H]2CC[C@@]1(C)[C@H](O)C2              No
 9               Cc1c(N)c(=O)n(-c2ccccc2)n1C              No
10  CCC(C)(CCCC(C)C)OC(C)=O (configuration not stated)              No
11                      c1ccc(CCc2ccccc2)cc1              No
12  CO/N=C(\C(=O)N[C@@H]1C(=O)N2C(C(=O)O)=C(CSc3nc(=O)c(O)nn3C)CS[C@H]12)c1csc(N)n1              No
13  CCC1C(=O)OCC1Cc1cncn1C (configuration not stated)              No
14                   CCCCN(CCC(=O)OCC)C(C)=O              No
15                        CN(C)CCN(C)CCN(C)C              No
16                                 CC(C)CCCO              No
17         CN1CCC(=C2c3ccccc3CCc3cccnc32)CC1              No
18                          C1CCC2=NCCCN2CC1              No
19                 CC(C)(C)OC(=O)c1cccc(N)c1              No
20  CC/C=C\CCOC(C)OCC (configuration not stated)              No
21                       C=CCCCCCCCCC(=O)OCC              No
22  NCCCC(N)(C(=O)O)C(F)F (configuration not stated)              No
23        CN1CCN(c2cc3c(nn2)Oc2ccccc2N3C)CC1              No
24  CCCCCCC1CCC(=O)O1 (configuration not stated)              No
25                            CCOc1ccccc1OCC              No
26  COc1cccc(OC)c1C(=O)N[C@@H]1C(=O)N2[C@@H]1SC(C)(C)[C@@H]2C(=O)O              No
27   C=CCOCC(O)CO (configuration not stated)              No
28                  Cc1ccc(C(=O)c2ccccc2)cc1             Yes
29                               CC(C)(N)C#N              No
30                     CC(C)(CCC(=O)O)C(=O)O              No
31                         CCC(=O)OCc1ccccc1              No
32                       CCCCCCCCCCCCCCCCCCO              No
33             O=C(O)Cc1csc(-c2ccc(Cl)cc2)n1              No
34  CC1OC1C1CCC2(C)OC2C1 (configuration not stated)              No
35                 CCO[Si](OCC)(OCC)c1ccccc1              No
36                   CC(C)COC(=O)c1ccc(N)cc1              No
37  COc1cc2c(cc1OC)-c1cc3ccc(OC)c(OC)c3c[n+]1CC2             Yes
38  CC(C(=O)O)c1cccc(Oc2ccccc2)c1 (configuration not stated)              No
39                           O=Cc1cccc(Br)c1              No
40  CCCc1nn(C)c2c(=O)[nH]c(-c3cc(S(=O)(=O)N4CCN(C)CC4)ccc3OCC)nc12              No
41            CC1=CC(=O)[C@H]2C[C@@H]1C2(C)C              No
42                    Nc1c2c(nc3c1CCC3)CCCC2              No

====

The reader will find reported max response values listed item by item below.
- Experiment notes: qHTS RealTime-Glo MT Cell Viability Assay in HEK293 cells - 40 hour (AID 1224874); also: % is scaled to controls: 0 for no effect and ±100 for the full control effect; nearly all actives have a fitted effect of over 50% in size
- Test parameters: RealTime-Glo luminescence; hits give low values
Records with an inconclusive call do not appear.
Value kind: max response (%)

> print(dat)
                                    compound  result.unit  value.measured
 1                            CCOc1ccccc1OCC            %             5.1
 2  C=CC(C)(CCC=C(C)C)OC(=O)CC (stereo unspecified)            %            -1.4
 3                                 Nc1ccccn1            %           -3.82
 4         CCOC(=O)c1cnc2c(cnn2CC)c1NN=C(C)C            %           -11.3
 5                                 CC(C)CCCO            %            9.91
 6  CO[C@@]1(NC(=O)CSC[C@@H](N)C(=O)O)C(=O)N2C(C(=O)O)=C(CSc3nnnn3C)CS[C@@H]21            %           -2.75
 7  C[N+]1(CC2COC(c3ccccc3)(c3ccccc3)O2)CCCCC1 (stereo unspecified)            %           -1.89
 8  COCCOC[C@H](CC1(C(=O)NC2CCC(C(=O)O)CC2)CCCC1)C(=O)Oc1ccc2c(c1)CCC2 (stereo partly specified)            %            5.36
 9        CCCCOCCOC(=O)CCCCCCCCC(=O)OCCOCCCC            %            7.25
10                     CC(C)C(=O)OC(=O)C(C)C            %            3.07
11  O=C(O)CC(C(=O)O)S(=O)(=O)O (stereo unspecified)            %            5.69
12                      CC(C)=CCC/C(C)=C/C#N            %            2.39
13  Nc1ccn([C@@H]2O[C@H](CO)[C@@H](O)[C@@H]2O)c(=O)n1            %            6.05
14       O=C(CO)[C@@H](O)[C@H](O)[C@@H](O)CO            %            5.66
15  COc1ccc2cc1Oc1cc3c(cc1OC)CC[N+](C)(C)[C@H]3Cc1ccc(cc1)Oc1c(OC)c(OC)cc3c1[C@@H](C2)[N+](C)(C)CC3            %           -3.12
16      CCCC(C)C(=O)OCC (stereo unspecified)            %           -2.71
17                      c1ccc(CCc2ccccc2)cc1            %            -4.4
18                   N[C@@H](CCC(=O)O)C(=O)O            %          -0.971
19   NC(CCC(=O)O)C(=O)O (stereo unspecified)            %            16.4
20                    CC(CO)(CO)[N+](=O)[O-]            %            3.85
21     CCCCCCCC1CCCC1=O (stereo unspecified)            %            18.6
22  C=COC(=O)C(C)(CC)CCC(C)C (stereo unspecified)            %           0.193
23                          CCOC(=O)c1ccccc1            %          -0.292
24  CCCCc1ccc2c(n1)[C@@H](c1ccc(OC)cc1C[C@H](C)C(=O)O)[C@H](C(=O)O)[C@H]2c1ccc2c(c1)OCO2            %           0.185
25          C=C[Si](OC(C)=O)(OC(C)=O)OC(C)=O            %            4.65
26             O=C(O)Cc1csc(-c2ccc(Cl)cc2)n1            %             1.2
